Cited source for all entries: patent US9315505B2

measured_on: PI3K δ (Homo sapiens)
Construct: purchased Upstate
Sequence (O00329 whole entry): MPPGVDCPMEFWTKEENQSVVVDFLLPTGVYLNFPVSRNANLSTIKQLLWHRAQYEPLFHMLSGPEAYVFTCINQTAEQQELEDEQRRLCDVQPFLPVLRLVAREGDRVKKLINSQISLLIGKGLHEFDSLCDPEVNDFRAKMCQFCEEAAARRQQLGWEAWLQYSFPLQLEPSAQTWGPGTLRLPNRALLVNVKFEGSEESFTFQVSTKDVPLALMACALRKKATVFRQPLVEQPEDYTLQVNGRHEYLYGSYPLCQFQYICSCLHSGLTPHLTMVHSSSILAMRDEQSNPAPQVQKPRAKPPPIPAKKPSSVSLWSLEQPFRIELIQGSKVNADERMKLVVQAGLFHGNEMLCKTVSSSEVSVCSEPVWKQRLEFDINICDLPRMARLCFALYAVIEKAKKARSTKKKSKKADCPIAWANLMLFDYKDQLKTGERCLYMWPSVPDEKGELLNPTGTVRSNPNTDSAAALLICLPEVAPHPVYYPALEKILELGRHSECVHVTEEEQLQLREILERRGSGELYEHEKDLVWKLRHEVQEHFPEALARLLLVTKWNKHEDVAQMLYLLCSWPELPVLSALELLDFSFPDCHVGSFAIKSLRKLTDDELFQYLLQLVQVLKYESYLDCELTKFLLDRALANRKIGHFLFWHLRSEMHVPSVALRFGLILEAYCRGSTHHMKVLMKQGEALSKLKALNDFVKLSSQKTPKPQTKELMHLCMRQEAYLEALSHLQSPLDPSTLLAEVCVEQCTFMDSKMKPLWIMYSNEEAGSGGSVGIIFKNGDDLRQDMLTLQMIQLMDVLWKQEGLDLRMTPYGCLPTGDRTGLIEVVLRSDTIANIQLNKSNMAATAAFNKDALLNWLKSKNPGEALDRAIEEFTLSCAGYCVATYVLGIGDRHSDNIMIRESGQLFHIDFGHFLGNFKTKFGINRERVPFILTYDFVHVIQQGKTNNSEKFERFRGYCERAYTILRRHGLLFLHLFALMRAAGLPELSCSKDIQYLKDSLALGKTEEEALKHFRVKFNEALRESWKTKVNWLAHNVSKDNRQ
Sequence (P27986 whole entry partner): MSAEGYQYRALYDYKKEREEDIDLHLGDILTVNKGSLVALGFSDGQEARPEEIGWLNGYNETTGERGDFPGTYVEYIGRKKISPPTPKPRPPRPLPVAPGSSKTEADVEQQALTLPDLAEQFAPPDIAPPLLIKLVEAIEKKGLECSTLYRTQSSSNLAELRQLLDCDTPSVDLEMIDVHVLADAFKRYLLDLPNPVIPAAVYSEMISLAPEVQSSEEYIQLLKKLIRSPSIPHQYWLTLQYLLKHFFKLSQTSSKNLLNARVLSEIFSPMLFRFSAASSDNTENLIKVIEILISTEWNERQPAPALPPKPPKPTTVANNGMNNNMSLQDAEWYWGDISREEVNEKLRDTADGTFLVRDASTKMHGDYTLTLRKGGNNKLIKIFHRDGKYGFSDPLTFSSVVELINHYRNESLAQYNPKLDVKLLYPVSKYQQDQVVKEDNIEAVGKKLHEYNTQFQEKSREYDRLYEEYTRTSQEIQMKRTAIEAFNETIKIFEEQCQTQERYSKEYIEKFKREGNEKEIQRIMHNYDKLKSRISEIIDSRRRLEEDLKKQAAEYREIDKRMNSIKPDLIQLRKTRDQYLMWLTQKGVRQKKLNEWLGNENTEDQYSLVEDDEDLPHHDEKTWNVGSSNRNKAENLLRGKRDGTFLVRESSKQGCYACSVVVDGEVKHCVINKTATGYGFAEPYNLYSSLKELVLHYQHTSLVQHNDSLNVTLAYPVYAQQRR
test: In vitro IC50, PI3K δ (p110δ/p85α inhibition assay)
Assay type: biochemical
condition_details: in vitro kinase assay; read-out: IC50(nM) PI3K δ
Collected IC50 values appear next to each entry.

// known answers, use as guide
- compound: "Cc1cccc2cc(C(Nc3ncnc4[nH]cnc34)c3ccccc3)ncc12 (centres unmarked)"
  IC50: "< 10000 nM"
- compound: "C[C@H](Nc1ncnc2[nH]cnc12)c1cc2cccc(Cl)c2c(CCN2CC(F)(F)C2)n1"
  IC50: "< 100 nM"
- compound: "Cc1cccc2cc(Cn3nc(-c4ccc5oc(N)nc5c4)c4c(N)ncnc43)nc(OC3CCN(C(C)C)CC3)c12"
  IC50: "< 100 nM"
- compound: "C[C@H](Nc1ncnc2[nH]cnc12)c1cc2cccc(Cl)c2c(-c2cccnc2)n1"
  IC50: "< 100 nM"
- compound: "C[C@H](Nc1ncnc2[nH]cnc12)c1cc2cccc(Cl)c2c(OC2CCN(S(C)(=O)=O)CC2)n1"
  IC50: "< 1000 nM"

Prompt line: Requested field: IC50. Item: CS(=O)(=O)N1CCC(Oc2nc(Cn3nc(-c4cn[nH]c4)c4c(N)ncnc43)cc3cccc(Cl)c23)CC1
Response line: < 1000 nM

Prompt line: Input C[C@H](Nc1ncnc2[nH]cnc12)c1cc2cccc(Cl)c2c(CCN2CCC2)n1
Response line: < 100 nM

Prompt line: Input Cc1cccc2cc(C(C)Nc3ncnc4[nH]cnc34)nc(CCN3CCCC3)c12 (centres unmarked)
Response line: < 100 nM
